Consider the following sequences and their measured protein stability index readings.
System: Saccharomyces cerevisiae
Assay: protein stability index of tFT-peptide fusion in deletion strain of DAS1 (PSI (0-1 scale)); higher = more stable (slower turnover)
Give the value as a plain number.

- item.sequence: "CTSCWYKFRTNN"
  protein stability index: 0.672
- item.sequence: "KKHKKGQKQFIN"
  protein stability index: 0.558
- item.sequence: "ARWRVFLWRGAS"
  protein stability index: 0.674
- item.sequence: "CTSCGYCFRTNN"
  protein stability index: 0.7
- item.sequence: "ARWRVGLWRGAT"
  protein stability index: 0.683
- item.sequence: "FSMRWTMRYWVN"
  protein stability index: 0.482

Form: Entry = CTSCGYFFRTNN | System = Saccharomyces cerevisiae | protein stability index = ____
0.695

Form: Entry = PDKRNHYIKLLN | System = Saccharomyces cerevisiae | protein stability index = ____
0.683

Form: Entry = KKLKKGQKQKIN | System = Saccharomyces cerevisiae | protein stability index = ____
0.594

Form: Entry = HLIQPLPVQFLN | System = Saccharomyces cerevisiae | protein stability index = ____
0.713

Form: Entry = QLIQPLPVQFLN | System = Saccharomyces cerevisiae | protein stability index = ____
0.616

Form: Entry = FSMRYTFRYWVN | System = Saccharomyces cerevisiae | protein stability index = ____
0.648

Form: Entry = RLHQPLPVQFLN | System = Saccharomyces cerevisiae | protein stability index = ____;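 further: PSI is a weighted mean of each variant's read distribution over the sorted stability bins, computed only for variants having over 10 reads in total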
0.581
